Each entry below lists one item and its recorded mSUCNR1 efficacy, % value.
- target: mSUCNR1 (Mus musculus)
- Construct: FLAG (own knowledge: pCMV-Tag 2B is an N-terminal FLAG vector); host or cells: HEK-293, transient transfection with Lipofectamine-2000
- run.description: IP3 turnover assay in mSUCNR1 transfected HEK-293 cells
- Type: cell-based
- applied.conditions: efficacy relative to succinate (100%); IP3 turnover, HEK cells (N = 3)
Quick note: give the figure in %, leave out the unit.

Below, each entry is followed by its recorded mSUCNR1 efficacy, % result.
QUERY: State the recorded mSUCNR1 efficacy, % for this entry: N#Cc1ccc(-c2ccc(C(=O)N[C@@H](CC(=O)O)C(=O)O)o2)cc1 [Compound 19]
RESULT: 76.0

QUERY: Quick check: mSUCNR1 efficacy, % of O=C(O)C[C@H](NC(=O)c1ccc(Br)o1)C(=O)O [Compound 4] ?
RESULT: 95.8

QUERY: Reported mSUCNR1 efficacy, %, compound O=C(O)C[C@H](NC(=O)c1ccc(-c2ccc(O)cc2)o1)C(=O)O [Compound 15] : ____
RESULT: 74.8

More entries:
QUERY: So what does the record say about mSUCNR1 efficacy, % for CCOc1ccc(-c2ccc(C(=O)N[C@@H](CC(=O)O)C(=O)O)o2)cc1 [Compound 21] ?
RESULT: 70.2

QUERY: Tell me the measured mSUCNR1 efficacy, % of CC1(COc2ccc(-c3ccc(C(=O)N[C@@H](CC(=O)O)C(=O)O)o3)cc2)COC1 [Compound 23] , please.
RESULT: 82.4

QUERY: Please give the measured mSUCNR1 efficacy, % for this compound: O=C(O)C[C@H](NC(=O)c1cccc(-c2ccc(F)cc2)c1)C(=O)O [Compound 25]
RESULT: 58.0

QUERY: What value of measured mSUCNR1 efficacy, % is listed for COc1ccc(-c2ccc(C(=O)N[C@@H](CC(=O)O)C(=O)O)o2)cc1 [Compound 17] ?
RESULT: 84.2

QUERY: Quick one: mSUCNR1 efficacy, % for CS(=O)(=O)CCCOc1ccc(-c2ccc(C(=O)N[C@@H](CC(=O)O)C(=O)O)o2)cc1 [Compound 24] ?
RESULT: 74.6

====

- target: mSUCNR1 (Mus musculus)
- Construct: FLAG (own knowledge: pCMV-Tag 2B is an N-terminal FLAG vector); host or cells: HEK-293, transient transfection with Lipofectamine-2000
- run.description: IP3 turnover assay in mSUCNR1 transfected HEK-293 cells
- Assay type: cell-based
- applied.conditions: efficacy relative to succinate (100%); IP3 turnover, HEK cells (N = 3)
Hi! Just check whether mSUCNR1 efficacy, % is below 70%. Below gives YES, equal or above gives NO.

QUERY: Lab note: confirm whether the reported mSUCNR1 efficacy, % for this molecule is below 70%, equality not counting. molecule: CC(C)Oc1ccc(-c2ccc(C(=O)N[C@@H](CC(=O)O)C(=O)O)o2)cc1 [Compound 22]
RESULT: NO

QUERY: In the record for O=C(O)C[C@H](NC(=O)c1ccc(-c2ccc(C(F)(F)F)cc2)o1)C(=O)O [Compound 18] , is mSUCNR1 efficacy, % less than 70%?
RESULT: NO

QUERY: Determine if O=C(O)C[C@H](NC(=O)c1ccc(-c2ccccc2)o1)C(=O)O [Compound 10] shows mSUCNR1 efficacy, % strictly lower than 70%.
RESULT: NO

***
QUERY: I wonder whether COc1ccc(-c2cccc(C(=O)N[C@@H](CC(=O)O)C(=O)O)c2)cc1 [Compound 28] has mSUCNR1 efficacy, % below 70%. Can you tell?
RESULT: YES

QUERY: Take the molecule O=C(O)C[C@H](NC(=O)c1ccc(-c2cccc(CO)c2)o1)C(=O)O [Compound 14] and say whether its mSUCNR1 efficacy, % is less than 70%.
RESULT: NO

QUERY: I wonder whether CCCOc1ccc(-c2cccc(C(=O)N[C@@H](CC(=O)O)C(=O)O)n2)cc1 [Compound 33] has mSUCNR1 efficacy, % below 70%. Can you tell?
RESULT: YES

====

- target: hSUCNR1 (Homo sapiens, UniProt Q9BXA5)
- Construct: FLAG (own knowledge: pCMV-Tag 2B is an N-terminal FLAG vector); host or cells: HEK-293, transient transfection with Lipofectamine-2000
- run.description: IP3 turnover assay in hSUCNR1 transfected HEK-293 cells
- Type: cell-based
- applied.conditions: efficacy relative to succinate (100%); IP3 turnover, HEK cells (N = 3)
metric.name: hSUCNR1 efficacy, % (%)
Reply with just the number (in %).

QUERY: Can you look up the measured hSUCNR1 efficacy, % of `O=C(O)C[C@H](NC(=O)c1cccc(-c2ccc(OCC(F)(F)F)cc2)n1)C(=O)O` for me?
RESULT: 88.7

---
QUERY: Query (molecule): `COc1ccc(-c2ccc(C(=O)N[C@@H](CC(=O)O)C(=O)O)o2)cc1` ; field requested: hSUCNR1 efficacy, %
RESULT: 85.3

QUERY: Dear colleague, I am looking for the recorded hSUCNR1 efficacy, % of the following molecule: `CS(=O)(=O)CCCOc1ccc(-c2ccc(C(=O)N[C@@H](CC(=O)O)C(=O)O)o2)cc1`
RESULT: 63.9

QUERY: Report hSUCNR1 efficacy, % for `Cc1ccc(-c2ccc(C(=O)N[C@@H](CC(=O)O)C(=O)O)o2)cc1` please.
RESULT: 69.1

QUERY: Give its hSUCNR1 efficacy, % value. Item: `O=C(O)C[C@H](NC(=O)c1cccc(-c2ccc(F)cc2)n1)C(=O)O`
RESULT: 78.2

====

Item-by-item account of EC50
- target: mSUCNR1 (Mus musculus, UniProt Q99MT6)
- Construct: FLAG (own knowledge: pCMV-Tag 2B is an N-terminal FLAG vector); host or cells: HEK-293, transient transfection with Lipofectamine-2000
- Sequence (Q99MT6 1-317): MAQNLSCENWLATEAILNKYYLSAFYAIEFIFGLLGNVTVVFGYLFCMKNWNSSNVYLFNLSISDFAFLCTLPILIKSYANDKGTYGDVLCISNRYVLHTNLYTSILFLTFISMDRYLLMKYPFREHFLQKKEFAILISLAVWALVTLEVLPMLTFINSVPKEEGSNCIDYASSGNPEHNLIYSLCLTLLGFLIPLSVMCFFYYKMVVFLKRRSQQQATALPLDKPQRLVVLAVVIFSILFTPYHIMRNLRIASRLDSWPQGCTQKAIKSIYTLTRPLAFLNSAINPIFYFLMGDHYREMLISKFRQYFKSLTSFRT
- run.description: IP3 turnover assay in mSUCNR1 transfected HEK-293 cells
- Type: cell-based
- applied.conditions: dose-response curves of induction of IP3 turnover in SUCNR1 transfected HEK cells (N = 3); read-out: mSUCNR1 pEC50 (converted)
- Method: Receptor constructs for mSUCNR1 and hSUCNR1 were bought from Origene and cloned into the eukaryotic expression vector pCMV-Tag(2B) (Stratagene). Transient transfection of the HEK-293 cells was done with Lipofectamine-2000 according to manufacturer’s protocol. […] 96-well plates were coated with poly-D-lysine and HEK-293 cells were plated (35.000 cells/well). […] The plate was spun down, and a Packard Top Count NXT counter recorded light emission (scintillation) after an 8 h delay.
Respond with the bare value in nM.

QUERY: Which EC50 value belongs to `O=C(O)C[C@H](NC(=O)c1cccc(-c2ccc(F)cc2)n1)C(=O)O` ?
RESULT: 794

QUERY: Which EC50 is listed for `O=C(O)C[C@H](NC(=O)c1cccc(-c2ccc(OCC(F)(F)F)cc2)n1)C(=O)O` ?
RESULT: 100

Others:
QUERY: Bench note: what EC50 did `COc1ccc(-c2cccc(C(=O)N[C@@H](CC(=O)O)C(=O)O)n2)cc1` show?
RESULT: 182

====

EC50 for assorted compounds
- target: hSUCNR1 (Homo sapiens)
- Construct: FLAG (own knowledge: pCMV-Tag 2B is an N-terminal FLAG vector); host or cells: HEK-293, transient transfection with Lipofectamine-2000
- Sequence (Q9BXA5 1-334): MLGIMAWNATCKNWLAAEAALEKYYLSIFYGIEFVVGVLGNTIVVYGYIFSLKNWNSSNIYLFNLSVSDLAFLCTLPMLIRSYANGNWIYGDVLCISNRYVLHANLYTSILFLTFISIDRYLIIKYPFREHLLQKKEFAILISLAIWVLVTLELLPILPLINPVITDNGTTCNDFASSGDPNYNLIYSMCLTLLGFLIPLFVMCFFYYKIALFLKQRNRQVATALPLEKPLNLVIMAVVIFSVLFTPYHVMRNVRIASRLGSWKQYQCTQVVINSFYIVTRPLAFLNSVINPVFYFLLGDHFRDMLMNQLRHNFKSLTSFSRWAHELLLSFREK
- run.description: IP3 turnover assay in hSUCNR1 transfected HEK-293 cells
- Assay type: cell-based
- applied.conditions: dose-response curves of induction of IP3 turnover in SUCNR1 transfected HEK cells (N = 3); read-out: hSUCNR1 pEC50 (converted)
Use nM as the unit, but write only the number.

QUERY: # lookup: EC50 of `COc1ccc(-c2cccc(C(=O)N[C@@H](CC(=O)O)C(=O)O)n2)cc1`
RESULT: 141

QUERY: Give the measured EC50 of `CCCOc1ccc(-c2cccc(C(=O)N[C@@H](CC(=O)O)C(=O)O)n2)cc1` .
RESULT: 58.9

Proceed to the following item.
QUERY: I'd like to know its EC50. The compound in question is `O=C(O)C[C@H](NC(=O)c1cccc(-c2ccc(F)cc2)n1)C(=O)O`
RESULT: 933
